assay: Solubility in organic solvents; format: physicochemical; details: chloroform
This listing pairs compounds with measured Solubility CHCl3.
Numeric answer only, unit mg/mL assumed.

Here are 2 compounds together with their reported answers.
CCCCC(C)N1C(=O)c2ccc3c4c(C#N)cc5c6c(ccc(c7c(C#N)cc(c2c37)C1=O)c64)C(=O)N(C(C)CCCC)C5=O (stereo not drawn) [PDI1MP-CN2] : 43
CCCCCC(C)N1C(=O)c2ccc3c4c(C#N)cc5c6c(ccc(c7c(C#N)cc(c2c37)C1=O)c64)C(=O)N(C(C)CCCCC)C5=O (stereo not drawn) [PDI1MH-CN2] : 54

Now, please, on to the next compound.
*Q* Input CC(C)CC(C)N1C(=O)c2ccc3c4c(C#N)cc5c6c(ccc(c7c(C#N)cc(c2c37)C1=O)c64)C(=O)N(C(C)CC(C)C)C5=O (stereo not drawn) [PDI1M3MB-CN2] , output reported Solubility CHCl3.
*A* 30

----------
This listing pairs molecules with measured Solubility DCB.
assay: Solubility in organic solvents; format: physicochemical; details: dichlorobenzene (DCB)

Here are 5 molecules together with their reported answers.
CCC(CC)N1C(=O)c2ccc3c4c(C#N)cc5c6c(ccc(c7c(C#N)cc(c2c37)C1=O)c64)C(=O)N(C(CC)CC)C5=O : 10 mg/mL
CCC(C)N1C(=O)c2ccc3c4c(C#N)cc5c6c(ccc(c7c(C#N)cc(c2c37)C1=O)c64)C(=O)N(C(C)CC)C5=O (stereo not drawn) : 8 mg/mL
CCCCCCCCN1C(=O)c2ccc3c4c(C#N)cc5c6c(ccc(c7c(C#N)cc(c2c37)C1=O)c64)C(=O)N(CCCCCCCC)C5=O [PDI8-CN2, reference compound] : 4 mg/mL
CCCCC(CC)CN1C(=O)c2ccc3c4c(C#N)cc5c6c(ccc(c7c(C#N)cc(c2c37)C1=O)c64)C(=O)N(CC(CC)CCCC)C5=O (stereo not drawn) [PDI2EH-CN2, reference compound] : 5 mg/mL
CCCC(C)N1C(=O)c2ccc3c4c(C#N)cc5c6c(ccc(c7c(C#N)cc(c2c37)C1=O)c64)C(=O)N(C(C)CCC)C5=O (stereo not drawn) : 5 mg/mL

*Q* Input CCCCC(C)CN1C(=O)c2ccc3c4c(C#N)cc5c6c(ccc(c7c(C#N)cc(c2c37)C1=O)c64)C(=O)N(CC(C)CCCC)C5=O (stereo not drawn) [PDI2MH-CN2, reference compound] , output reported Solubility DCB.
*A* 5 mg/mL

----------
assay: Cyclic voltammetry (reduction potential); format: physicochemical; conditions: 0.1 M THF/TBAPF6, under N2, bare Ag reference electrode, scan 60-150 mV/s
This listing pairs compounds with measured Ered.
Numeric answer only, unit V assumed.

Here are 4 compounds together with their reported answers.
CCC(CC)N1C(=O)c2ccc3c4c(C#N)cc5c6c(ccc(c7c(C#N)cc(c2c37)C1=O)c64)C(=O)N(C(CC)CC)C5=O [PDI1EPr-CN2] : −0.101
CCCC(CC)N1C(=O)c2ccc3c4c(Br)cc5c6c(ccc(c7c(Br)cc(c2c37)C1=O)c64)C(=O)N(C(CC)CCC)C5=O (stereo not drawn) [PDI1EB-Br2] : −0.34
CC(C)CC(C)N1C(=O)c2ccc3c4c(C#N)cc5c6c(ccc(c7c(C#N)cc(c2c37)C1=O)c64)C(=O)N(C(C)CC(C)C)C5=O (stereo not drawn) [PDI1M3MB-CN2] : −0.088
CCCCCC(C)N1C(=O)c2ccc3c4c(Br)cc5c6c(ccc(c7c(Br)cc(c2c37)C1=O)c64)C(=O)N(C(C)CCCCC)C5=O (stereo not drawn) [PDI1MH-Br2] : −0.38

*Q* Input CCCCCCCCN1C(=O)c2ccc3c4c(C#N)cc5c6c(ccc(c7c(C#N)cc(c2c37)C1=O)c64)C(=O)N(CCCCCCCC)C5=O [PDI8-CN2, reference compound] , output reported Ered.
*A* −0.150

*Q* Input CCC(C)N1C(=O)c2ccc3c4c(Br)cc5c6c(ccc(c7c(Br)cc(c2c37)C1=O)c64)C(=O)N(C(C)CC)C5=O (stereo not drawn) [PDI1MPr-Br2] , output reported Ered.
*A* −0.40

*Q* Input CCCC(C)N1C(=O)c2ccc3c4c(C#N)cc5c6c(ccc(c7c(C#N)cc(c2c37)C1=O)c64)C(=O)N(C(C)CCC)C5=O (stereo not drawn) [PDI1MB-CN2] , output reported Ered.
*A* −0.083

*Q* Input CCCCCC(C)N1C(=O)c2ccc3c4c(C#N)cc5c6c(ccc(c7c(C#N)cc(c2c37)C1=O)c64)C(=O)N(C(C)CCCCC)C5=O (stereo not drawn) [PDI1MH-CN2] , output reported Ered.
*A* −0.094

----------
test: Solubility in organic solvents; type: physicochemical; conditions: dichlorobenzene (DCB)
quantity kind: Solubility DCB
Numeric answer plus unit only.

Here are 3 compounds together with their reported answers.
CC(C)CC(C)N1C(=O)c2ccc3c4c(C#N)cc5c6c(ccc(c7c(C#N)cc(c2c37)C1=O)c64)C(=O)N(C(C)CC(C)C)C5=O (centres unmarked) : 37 mg/mL
CCCC(CC)N1C(=O)c2ccc3c4c(C#N)cc5c6c(ccc(c7c(C#N)cc(c2c37)C1=O)c64)C(=O)N(C(CC)CCC)C5=O (centres unmarked) : 10 mg/mL
CCCCCC(C)N1C(=O)c2ccc3c4c(C#N)cc5c6c(ccc(c7c(C#N)cc(c2c37)C1=O)c64)C(=O)N(C(C)CCCCC)C5=O (centres unmarked) : 52 mg/mL

*Q* Input CC(C)=CCC[C@H](C)CCN1C(=O)c2ccc3c4c(C#N)cc5c6c(ccc(c7c(C#N)cc(c2c37)C1=O)c64)C(=O)N(CC[C@@H](C)CCC=C(C)C)C5=O [PDICitr-CN2, reference compound] , output reported Solubility DCB.
*A* 8 mg/mL

*Q* Input CCCCC(C)N1C(=O)c2ccc3c4c(C#N)cc5c6c(ccc(c7c(C#N)cc(c2c37)C1=O)c64)C(=O)N(C(C)CCCC)C5=O (centres unmarked) , output reported Solubility DCB.
*A* 40 mg/mL

----------
Assay: Solubility in organic solvents
Format: physicochemical
Conditions: chloroform
Protocol: As certain embodiments of the compounds disclosed herein can be soluble in common solvents, the present teachings can offer processing advantages in fabricating electrical devices such as thin film semiconductors, field-effect devices, organic light emitting diodes (OLEDs), organic photovoltaics, photodetectors, capacitors, and sensors. As used herein, a compound can be considered soluble in a solvent when at least 1 mg of the compound can be dissolved in 1 mL of the solvent. […]
This listing pairs compounds with measured Solubility CHCl3.
Numeric answer only, unit µg/mL assumed.

Here are 2 compounds together with their reported answers.
CCCCC(CC)CN1C(=O)c2ccc3c4c(C#N)cc5c6c(ccc(c7c(C#N)cc(c2c37)C1=O)c64)C(=O)N(CC(CC)CCCC)C5=O (stereo not drawn) [PDI2EH-CN2, reference compound] : 5000
CCCC(CC)N1C(=O)c2ccc3c4c(C#N)cc5c6c(ccc(c7c(C#N)cc(c2c37)C1=O)c64)C(=O)N(C(CC)CCC)C5=O (stereo not drawn) : 8000

Now, please, on to the next compound.
*Q* Input CCCCCCCCN1C(=O)c2ccc3c4c(C#N)cc5c6c(ccc(c7c(C#N)cc(c2c37)C1=O)c64)C(=O)N(CCCCCCCC)C5=O [PDI8-CN2, reference compound] , output reported Solubility CHCl3.
*A* 4000

----------
This listing pairs molecules with measured Ered.
assay: Cyclic voltammetry (reduction potential); format: physicochemical; settings: 0.1 M THF/TBAPF6, under N2, bare Ag reference electrode, scan 60-150 mV/s
Numeric answer only, unit V assumed.

CCCCC(C)N1C(=O)c2ccc3c4c(C#N)cc5c6c(ccc(c7c(C#N)cc(c2c37)C1=O)c64)C(=O)N(C(C)CCCC)C5=O (stereo not drawn) [PDI1MP-CN2] : −0.071

*Q* Input CC(C)=CCC[C@H](C)CCN1C(=O)c2ccc3c4c(C#N)cc5c6c(ccc(c7c(C#N)cc(c2c37)C1=O)c64)C(=O)N(CC[C@@H](C)CCC=C(C)C)C5=O [PDICitr-CN2, reference compound] , output reported Ered.
*A* −0.142

*Q* Input CCCC(CC)N1C(=O)c2ccc3c4c(C#N)cc5c6c(ccc(c7c(C#N)cc(c2c37)C1=O)c64)C(=O)N(C(CC)CCC)C5=O (stereo not drawn) [PDI1EB-CN2] , output reported Ered.
*A* −0.106

----------
This listing pairs molecules with measured Ered.
Test: Cyclic voltammetry (reduction potential)
Type: physicochemical
Settings: 0.1 M THF/TBAPF6, under N2, bare Ag reference electrode, scan 60-150 mV/s
Procedure: Cyclic voltammetry experiments were conducted using an Epsilon single-channel […] and a BAS C3 cell stand (a one-compartment cell with a C disk working electrode, a bare Ag reference electrode, and a Pt wire counter electrode). Appropriate precautions were taken to eliminate water and oxygen during measurement. All measurements were performed under N2 by dissolving the compound (1-3 mg) in a 0.1 M THF/TBAPF6 solutions with scanning rates between 60-150 mV/s. […]
Numeric answer plus unit only.

Here are 6 molecules together with their reported answers.
CCC(C)N1C(=O)c2ccc3c4c(C#N)cc5c6c(ccc(c7c(C#N)cc(c2c37)C1=O)c64)C(=O)N(C(C)CC)C5=O (stereo not shown) [PDI1MPr-CN2] : −0.091 V
CCCC(C)N1C(=O)c2ccc3c4c(Br)cc5c6c(ccc(c7c(Br)cc(c2c37)C1=O)c64)C(=O)N(C(C)CCC)C5=O (stereo not shown) [PDI1MB-Br2] : −0.39 V
CCC(CC)N1C(=O)c2ccc3c4c(Br)cc5c6c(ccc(c7c(Br)cc(c2c37)C1=O)c64)C(=O)N(C(CC)CC)C5=O [PDI1EPr-Br2] : −0.38 V
CCCCC(CC)CN1C(=O)c2ccc3c4c(C#N)cc5c6c(ccc(c7c(C#N)cc(c2c37)C1=O)c64)C(=O)N(CC(CC)CCCC)C5=O (stereo not shown) [PDI2EH-CN2, reference compound] : −0.130 V
CCCCC(C)CN1C(=O)c2ccc3c4c(C#N)cc5c6c(ccc(c7c(C#N)cc(c2c37)C1=O)c64)C(=O)N(CC(C)CCCC)C5=O (stereo not shown) [PDI2MH-CN2, reference compound] : −0.120 V
CC(C)CC(C)N1C(=O)c2ccc3c4c(Br)cc5c6c(ccc(c7c(Br)cc(c2c37)C1=O)c64)C(=O)N(C(C)CC(C)C)C5=O (stereo not shown) [PDI1M3MB-Br2] : −0.39 V

Now, please, on to the next molecule.
*Q* Input CCCCC(C)N1C(=O)c2ccc3c4c(Br)cc5c6c(ccc(c7c(Br)cc(c2c37)C1=O)c64)C(=O)N(C(C)CCCC)C5=O (stereo not shown) [PDI1MP-Br2] , output reported Ered.
*A* −0.41 V
